System: histamine-induced contractions in guinea pig ileum
Test: Inhibition of histamine-induced contractions in guinea pig ileum (Assay 3)
Settings: Cavia porcellus; 30 μM; histamine 1.7 μM; read-out: Inhibition of histamine-induced contraction (%)
Structures can show the parent of a compound that is named as a salt.
Parameter: inhibition at 30 µM. Scope: all listed entries.
The response must be a number in % with no trailing unit.

A selection of reference data follows.
COc1cc(CCC(=O)C(C)(C)C(=O)c2ccccc2)ccc1O    89
COc1cc(CCC(=O)CC(=O)c2ccccc2)ccc1OCCN [Compound 87, hydrochloride]    58
COc1cc(CCC(=O)CC(=O)Cc2ccccc2)ccc1O    18
COc1cc(CCC(=O)CC(=O)c2ccc(C)cc2)ccc1O    62
COc1cc(CCC(=O)CC(=O)c2ccc(Cl)cc2C)ccc1O    81

Query: Quote inhibition at 30 µM reported for COC(=O)c1ccc(C(=O)CC(=O)CCc2ccc(O)c(OC)c2)cc1 please.
Response: 43

Query: Respond only with inhibition at 30 µM recorded for COc1cc(CCC(=O)C(C)C(=O)C2(C)CC2)ccc1O (centres unmarked)
Response: 12

Query: Report measured inhibition at 30 µM; entry is COc1ccc(C(=O)C(C)C(=O)CCc2ccc(O)c(OC)c2)cc1 (centres unmarked)
Response: 29

Query: Please report the measured inhibition at 30 µM for COc1cc(CCC(=O)CC(=O)C(c2ccccc2)c2ccccc2)ccc1O
Response: 89

Query: Check the records and state inhibition at 30 µM for COc1cc(CCC(=O)CC(=O)c2ccc(F)cc2)ccc1O
Response: 22

Query: Provide inhibition at 30 µM value for the following compound: COc1cc(CCC(=O)C(C)C(=O)c2ccccc2)ccc1O (centres unmarked)
Response: 32

Query: Give a short answer stating reported inhibition at 30 µM for COc1cc(CCC(=O)CC(=O)c2ccccc2-c2ccccc2)ccc1O .
Response: 81

Query: Given the compound COc1cc(/C=C/C(=O)CC(=O)c2ccc(O)c(OC)c2)ccc1O , write its reported inhibition at 30 µM.
Response: 23

Query: Supply recorded inhibition at 30 µM for COc1cc(CCC(=O)CC(=O)c2ccccc2)ccc1O here.
Response: 41

Query: Answer with the recorded inhibition at 30 µM for the compound listed here: COc1cc(CCC(=O)CC(=O)c2cccc(Cl)c2)ccc1O
Response: 65

Query: Answer with the recorded inhibition at 30 µM of COc1cc(CCC(=O)CC(=O)c2ccc(O)c(OC)c2)ccc1O only.
Response: 13

Query: Determine from records and report inhibition at 30 µM for COc1cc(CCC(=O)CC(=O)C2(C)CC2)ccc1O
Response: 12

Query: Give the value of inhibition at 30 µM reported for the following: COc1cc(CCC(=O)CC(=O)c2ccc(C(C)(C)C)cc2)ccc1O
Response: 17

Query: Tell me its inhibition at 30 µM given CCC(C(=O)CCc1ccc(O)c(OC)c1)C(=O)c1ccccc1 (centres unmarked) as the entry.
Response: 41

Query: Given the compound COc1cc(CCC(=O)C(C)C(=O)c2ccc(O)c(OC)c2)ccc1O (centres unmarked) , write its reported inhibition at 30 µM.
Response: 22

Query: Provide inhibition at 30 µM value for the following compound: COc1cc(CCC(=O)C(C)C(=O)c2ccc(C)cc2)ccc1O (centres unmarked)
Response: 54

Query: Quickly give me recorded inhibition at 30 µM for COc1cc(CCC(=O)CC(=O)Cc2cccc3ccccc23)ccc1O
Response: 89

Query: Query inhibition at 30 µM for COc1cc(CCC(=O)C(C)(C)C(=O)c2ccc(C)cc2)ccc1O
Response: 94

Query: Respond only with inhibition at 30 µM recorded for COc1cc(CCC(=O)CC(=O)C(C)(C)c2ccccc2)ccc1O
Response: 68
